biological target: Bombyx mori EcR (VP16 fusion, switch construct CVBE) with 6XEcRE LacZ reporter (Bombyx mori); construct: expressed in transfected cells; host or cells: Human 293 kidney (HEK-293) cells, retrovirally infected, clone Z3; assay: Z3 assay: β-galactosidase (LacZ) reporter gene fold induction in stably transformed human 293 kidney cells (clone Z3); format: cell-based; conditions: read-out: Fold Induction Average, Z3 Assay (33 μM)
Sequence (P49881 86-606 limits assumed): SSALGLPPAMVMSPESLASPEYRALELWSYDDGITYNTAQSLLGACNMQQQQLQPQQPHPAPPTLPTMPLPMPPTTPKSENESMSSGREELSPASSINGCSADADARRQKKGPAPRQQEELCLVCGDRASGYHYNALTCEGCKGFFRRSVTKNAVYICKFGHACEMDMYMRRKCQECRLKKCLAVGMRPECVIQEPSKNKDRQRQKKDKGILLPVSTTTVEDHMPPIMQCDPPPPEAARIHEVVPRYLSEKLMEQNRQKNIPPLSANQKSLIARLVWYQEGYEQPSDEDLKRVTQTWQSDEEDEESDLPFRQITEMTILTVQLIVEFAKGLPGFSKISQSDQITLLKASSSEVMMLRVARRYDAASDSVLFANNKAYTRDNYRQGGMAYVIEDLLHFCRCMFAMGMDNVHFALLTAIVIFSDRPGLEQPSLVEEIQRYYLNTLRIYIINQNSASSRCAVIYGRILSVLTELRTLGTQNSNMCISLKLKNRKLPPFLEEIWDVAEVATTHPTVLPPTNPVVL
Sequence (P19793 whole entry partner, the tested form may be a part): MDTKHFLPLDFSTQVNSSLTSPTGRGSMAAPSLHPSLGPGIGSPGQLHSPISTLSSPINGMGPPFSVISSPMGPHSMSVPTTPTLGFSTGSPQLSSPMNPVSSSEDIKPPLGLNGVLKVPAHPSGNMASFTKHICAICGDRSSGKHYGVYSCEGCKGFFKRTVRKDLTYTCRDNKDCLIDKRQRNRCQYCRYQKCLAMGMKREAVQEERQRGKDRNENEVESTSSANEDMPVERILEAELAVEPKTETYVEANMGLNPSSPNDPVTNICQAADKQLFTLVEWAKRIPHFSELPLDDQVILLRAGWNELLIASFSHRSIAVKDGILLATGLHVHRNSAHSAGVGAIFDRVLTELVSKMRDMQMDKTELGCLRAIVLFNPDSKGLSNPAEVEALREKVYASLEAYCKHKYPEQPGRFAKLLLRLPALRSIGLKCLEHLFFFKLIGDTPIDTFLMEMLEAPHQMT
valueType: fold induction at 33 µM
Field format: numeric only.

Previously resolved entries follow.
molecule	fold induction at 33 µM
COc1cccc(C(=O)NC2(C(=O)c3cccc(C)c3)CCOCC2)c1C	19
COc1cccc(C(=O)NC2(C(=O)c3ccc(F)cc3)CCCC2)c1C	153
COc1ccccc1C(=O)C1(NC(=O)c2cccc(OC)c2C)CCCC1	951
COc1cc(C(=O)C2(NC(=O)c3cccc(OC)c3C)CCCCC2)cc(OC)c1C	341
CCCCC(=O)C1(NC(=O)c2cccc(OC)c2C)CCCCC1	791

Exercise: Assign fold induction at 33 µM to the following record: `COc1cccc(C(=O)C2(NC(=O)c3cccc(OC)c3C)CCCCC2)c1`
Solution: 233

Exercise: Assign fold induction at 33 µM to the following record: `CCc1c(OC)cccc1C(=O)NC1(C(=O)c2ccccc2)CCCC1`
Solution: 305

Exercise: Assign fold induction at 33 µM to the following record: `CCC(CC)(NC(=O)c1cccc(OC)c1C)C(=O)c1ccc(F)c(C)c1`
Solution: 178

Exercise: Assign fold induction at 33 µM to the following record: `COc1cccc(C(=O)NC2(C(=O)c3ccc(C)cc3)CCCCC2)c1C`
Solution: 921

Exercise: Assign fold induction at 33 µM to the following record: `COc1cccc(C(=O)NC2(C(=O)c3ccc(F)cc3)CCCCC2)c1C`
Solution: 817

Exercise: Assign fold induction at 33 µM to the following record: `COc1cccc(C(=O)NC2(C(=O)c3ccccc3C)CCCCC2)c1C`
Solution: 94

* * *

Biological target: Gal4 DBD/AaEcR (DEF) with VP16-βRXR-E (Aedes aegypti)
Construct: The wildtype D, E, and F domains from mosquito Aedes aegypti EcR (“AaEcR-DEF”); expressed in transfected cells; host or cells: 3T3 cells, transient transfection (Superfect)
Sequence (P28704 286-520 A311G/G315S/G445S/I449V): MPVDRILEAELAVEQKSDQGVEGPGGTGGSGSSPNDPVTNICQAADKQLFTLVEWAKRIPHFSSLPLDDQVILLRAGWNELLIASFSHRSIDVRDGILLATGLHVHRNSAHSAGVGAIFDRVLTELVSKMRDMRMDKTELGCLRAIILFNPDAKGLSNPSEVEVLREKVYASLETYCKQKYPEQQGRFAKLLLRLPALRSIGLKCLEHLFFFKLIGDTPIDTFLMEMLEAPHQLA
Sequence (P49880 405-776): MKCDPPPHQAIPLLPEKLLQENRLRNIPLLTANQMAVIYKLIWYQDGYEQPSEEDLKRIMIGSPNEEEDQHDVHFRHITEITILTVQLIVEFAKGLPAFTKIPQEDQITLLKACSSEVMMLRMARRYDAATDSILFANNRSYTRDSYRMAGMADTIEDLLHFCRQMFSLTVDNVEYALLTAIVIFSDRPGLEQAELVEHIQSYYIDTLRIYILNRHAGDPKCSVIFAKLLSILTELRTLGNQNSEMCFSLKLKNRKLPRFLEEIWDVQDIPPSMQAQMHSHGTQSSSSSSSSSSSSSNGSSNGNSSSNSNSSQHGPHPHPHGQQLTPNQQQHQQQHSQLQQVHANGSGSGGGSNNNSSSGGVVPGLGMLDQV
Assay: cell-based
Assay type: cell-based
Conditions: single dose 33 μM; RLU ligand treated / RLU DMSO treated cells
Procedure: 3T3 cells were trypsinized and plated at 2.5×10^3 cells/well on a 96-well plate. After incubation for 24 h at 37° C. under 5% CO2, cells were transfected with the Gal4 DBD/AaEcR (DEF) gene expression cassette and the reporter plasmid, pFRLuc, containing a 5XGAL4 response element and the firefly luciferase gene in serum free media using Superfect (Qiagen). After transfection for 4 h at 37° C., the cells were treated with ligand in serum media. […] Single dose testing was performed at 33 μM.
Let's look at some molecules and their measured Fold Induction Average, AA_3T3 Assay (33 μM).
Field format: numeric only.

Previously resolved entries follow.
molecule	measuredOn	readoutNumber
CCC(=O)C1(NC(=O)c2ccccc2C)CCCC1	Gal4 DBD/AaEcR (DEF) with VP16-βRXR-E (Aedes aegypti)	1
CCc1c(OC)cccc1C(=O)NC1(C(=O)c2cc(C)cc(C)c2)CCCCC1	Gal4 DBD/AaEcR (DEF) with VP16-βRXR-E (Aedes aegypti)	1929
CCC(CC)(NC(=O)c1cccc(OC)c1C)C(=O)c1ccc(C)cc1	Gal4 DBD/AaEcR (DEF) with VP16-βRXR-E (Aedes aegypti)	1

We now examine a further molecule.
Exercise: Assign Fold Induction Average, AA_3T3 Assay (33 μM) to the following record: COc1ccccc1C(=O)C(C)(NC(=O)c1cccc(OC)c1C)c1ccc(F)cc1 (stereo not shown)
Solution: 3

FYI, the data here is from patent US8129355B2.
